Target: alpha2C receptor (Homo sapiens)
Construct: expressed in transfected cells; host or cells: NIH-3T3
Sequence (P18825 whole entry): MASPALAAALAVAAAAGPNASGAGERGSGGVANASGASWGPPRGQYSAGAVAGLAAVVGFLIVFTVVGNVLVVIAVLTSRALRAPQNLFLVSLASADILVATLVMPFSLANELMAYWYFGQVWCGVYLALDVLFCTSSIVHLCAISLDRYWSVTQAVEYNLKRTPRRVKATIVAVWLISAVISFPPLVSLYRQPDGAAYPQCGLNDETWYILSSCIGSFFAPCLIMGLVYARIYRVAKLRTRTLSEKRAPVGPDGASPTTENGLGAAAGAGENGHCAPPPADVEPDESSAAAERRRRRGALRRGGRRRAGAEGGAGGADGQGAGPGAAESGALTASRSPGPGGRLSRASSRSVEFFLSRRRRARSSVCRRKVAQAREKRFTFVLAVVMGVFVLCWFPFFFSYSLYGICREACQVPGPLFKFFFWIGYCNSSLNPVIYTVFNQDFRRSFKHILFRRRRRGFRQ
Experiment: RSAT assay, Alpha 2C
Type: cell-based
Conditions: RSAT, transfected NIH-3T3 cells with Gq/i5; nd = not determinable at concentrations less than 10 micromolar
Experimental: Receptor Selection and Amplification Technology (RSAT) Assay The RSAT assay measures a receptor-mediated loss of contact inhibition that results in selective proliferation of receptor-containing cells in a mixed population of confluent cells. The increase in cell number is assessed with an appropriate transfected marker gene such as β-galactosidase, the activity of which can be easily measured in a 96-well format. Receptors that activate the G protein, Gq, elicit this response. […]
Reported pEC50 values for a set of molecules
# reply with the number alone; pEC50 is -log10 of concentration in mol/L

Result for c1ccc2c(c1)CCCC2NC1=NCCN1 (centres unmarked) [compound 639] , tested on alpha2C receptor (Homo sapiens), pEC50: 6.75

Field: next molecule
pEC50 of c1ccc2c(c1)CCC[C@@H]2NC1=NCCN1 [compound 323] , assay on alpha2C receptor (Homo sapiens), is 6.51

---

Biological target: alpha2A receptor (Homo sapiens)
Sequence (P08913 1-465): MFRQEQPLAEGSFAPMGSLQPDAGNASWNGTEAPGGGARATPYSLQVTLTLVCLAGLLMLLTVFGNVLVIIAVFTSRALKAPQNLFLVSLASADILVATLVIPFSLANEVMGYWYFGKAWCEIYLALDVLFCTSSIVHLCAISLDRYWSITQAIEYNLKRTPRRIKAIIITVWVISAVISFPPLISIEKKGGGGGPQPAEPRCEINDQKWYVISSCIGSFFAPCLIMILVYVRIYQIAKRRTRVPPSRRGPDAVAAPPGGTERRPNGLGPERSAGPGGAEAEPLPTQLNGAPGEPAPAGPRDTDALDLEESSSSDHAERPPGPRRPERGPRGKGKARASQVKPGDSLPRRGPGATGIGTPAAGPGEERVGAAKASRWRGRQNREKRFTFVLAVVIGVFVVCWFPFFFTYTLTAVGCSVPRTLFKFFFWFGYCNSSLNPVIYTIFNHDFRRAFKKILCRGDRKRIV
Experiment: RSAT assay, Alpha 2A
Conditions: RSAT, transfected NIH-3T3 cells with Gq/i5; nd = not determinable at concentrations less than 10 micromolar
Method: Receptor Selection and Amplification Technology (RSAT) Assay The RSAT assay measures a receptor-mediated loss of contact inhibition that results in selective proliferation of receptor-containing cells in a mixed population of confluent cells. The increase in cell number is assessed with an appropriate transfected marker gene such as β-galactosidase, the activity of which can be easily measured in a 96-well format. Receptors that activate the G protein, Gq, elicit this response. […]
readout type: EC50 (nM)
Reply with just the number (in nM).

Item: Cc1cc(C)c2c(c1)C(NC1=NCCN1)CCC2 (stereo not shown) | EC50: 1620
